# MEASURED ON: hSCN3A sodium channels (Homo sapiens, UniProt Q9NY46)
# Construct: expressed in transfected cells
# Sequence (Q9NY46 whole entry): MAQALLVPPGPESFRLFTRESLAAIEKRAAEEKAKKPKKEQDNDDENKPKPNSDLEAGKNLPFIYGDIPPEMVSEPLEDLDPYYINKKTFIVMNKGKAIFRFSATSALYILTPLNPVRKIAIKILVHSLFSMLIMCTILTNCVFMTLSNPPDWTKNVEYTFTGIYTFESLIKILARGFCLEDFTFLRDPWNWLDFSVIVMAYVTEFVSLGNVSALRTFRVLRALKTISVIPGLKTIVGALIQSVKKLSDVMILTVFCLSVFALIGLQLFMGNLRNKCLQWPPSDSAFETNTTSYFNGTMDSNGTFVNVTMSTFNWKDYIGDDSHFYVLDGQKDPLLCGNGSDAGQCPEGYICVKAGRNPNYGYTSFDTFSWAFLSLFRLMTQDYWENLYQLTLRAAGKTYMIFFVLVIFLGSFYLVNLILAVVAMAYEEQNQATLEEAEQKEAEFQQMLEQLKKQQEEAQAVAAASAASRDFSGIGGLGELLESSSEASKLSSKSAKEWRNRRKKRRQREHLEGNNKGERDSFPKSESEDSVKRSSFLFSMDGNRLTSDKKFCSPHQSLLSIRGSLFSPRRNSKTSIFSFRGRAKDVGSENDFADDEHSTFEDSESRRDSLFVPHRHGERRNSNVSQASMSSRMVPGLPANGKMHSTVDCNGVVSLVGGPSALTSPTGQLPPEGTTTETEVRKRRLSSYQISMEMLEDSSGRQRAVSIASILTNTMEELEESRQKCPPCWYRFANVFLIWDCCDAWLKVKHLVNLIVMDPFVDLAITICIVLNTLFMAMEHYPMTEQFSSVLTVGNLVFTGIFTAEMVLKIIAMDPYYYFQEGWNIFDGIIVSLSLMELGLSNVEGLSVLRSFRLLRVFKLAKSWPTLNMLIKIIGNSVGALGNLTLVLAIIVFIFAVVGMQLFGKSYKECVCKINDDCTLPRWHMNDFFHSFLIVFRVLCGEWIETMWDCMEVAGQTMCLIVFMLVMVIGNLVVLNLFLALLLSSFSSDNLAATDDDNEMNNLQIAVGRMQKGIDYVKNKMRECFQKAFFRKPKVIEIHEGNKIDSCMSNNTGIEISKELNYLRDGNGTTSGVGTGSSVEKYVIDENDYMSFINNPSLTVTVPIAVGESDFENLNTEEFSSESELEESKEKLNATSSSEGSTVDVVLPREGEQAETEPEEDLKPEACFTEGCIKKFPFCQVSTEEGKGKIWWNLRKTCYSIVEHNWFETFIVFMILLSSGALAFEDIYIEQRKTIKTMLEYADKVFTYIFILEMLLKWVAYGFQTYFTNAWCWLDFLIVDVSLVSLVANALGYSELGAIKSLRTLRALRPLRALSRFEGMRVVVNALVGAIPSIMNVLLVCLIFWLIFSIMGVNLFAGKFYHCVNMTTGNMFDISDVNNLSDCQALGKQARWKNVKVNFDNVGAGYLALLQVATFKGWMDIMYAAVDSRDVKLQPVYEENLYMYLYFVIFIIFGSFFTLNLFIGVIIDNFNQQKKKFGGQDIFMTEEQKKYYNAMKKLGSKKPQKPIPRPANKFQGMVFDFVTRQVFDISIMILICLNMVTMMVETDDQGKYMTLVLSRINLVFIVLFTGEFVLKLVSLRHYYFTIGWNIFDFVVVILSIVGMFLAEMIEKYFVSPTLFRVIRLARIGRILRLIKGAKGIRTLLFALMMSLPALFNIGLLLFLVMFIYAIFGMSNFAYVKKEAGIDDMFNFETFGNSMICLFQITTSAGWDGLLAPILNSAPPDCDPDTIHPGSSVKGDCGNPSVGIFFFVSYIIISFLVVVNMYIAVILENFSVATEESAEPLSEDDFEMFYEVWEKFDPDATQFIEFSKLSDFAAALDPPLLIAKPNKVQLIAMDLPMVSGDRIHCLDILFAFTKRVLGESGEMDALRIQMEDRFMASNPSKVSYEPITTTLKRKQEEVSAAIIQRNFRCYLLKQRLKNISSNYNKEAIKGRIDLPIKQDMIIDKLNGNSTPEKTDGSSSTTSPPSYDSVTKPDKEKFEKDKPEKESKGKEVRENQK
# ASSAY NOTES: hSCN3A electrophysiology, Ionworks Quattro automated platform (Table C)
# Type: cell-based
# MEASUREMENT SETUP: 3 μM compound, read-out: SCN3A % INHIB HTS IWQ 3 μM
MEASUREMENT LABEL: inhibition at 3 µM (%)
Write it as a number; the unit % goes unstated.

Examples with answers:
| COMPOUND | UNIT OF MEASUREMENT | MEASURED |
| --- | --- | --- |
| COc1ccc(CC2CCCN(C(=O)c3ccc(S(=O)(=O)Nc4nccs4)cc3)C2)cc1 (centres unmarked) [Example 270] | % | 19.2 |
| O=C(NCC1(c2ccccc2)CCCC1)c1ccc(S(=O)(=O)Nc2nccs2)cc1 [Example 121] | % | 31.1 |
| O=C(c1ccc(S(=O)(=O)Nc2nccs2)cc1)N1CCCC1c1ccccn1 (centres unmarked) [Example 283] | % | -1.98 |

Please find the next compound below.
Record CCC(NC(=O)c1ccc(S(=O)(=O)Nc2nccs2)cc1)c1ccc(F)cc1 (centres unmarked) [Example 142] ; system hSCN3A sodium channels (Homo sapiens, UniProt Q9NY46); inhibition at 3 µM = 30.4

----------
# MEASURED ON: hSCN3A sodium channels (Homo sapiens, UniProt Q9NY46)
# Construct: expressed in transfected cells
# ASSAY NOTES: hSCN3A electrophysiology, Ionworks Quattro automated platform (Table C)
# Format: cell-based
# MEASUREMENT SETUP: 10 μM compound, read-out: SCN3A % INHIB HTS IWQ 10 μM
Label scheme for inhibition at 10 µM: low interval (below 10%), middle interval (10% to below 20%), high interval (20% or more)

Here's what some known entries look like.
| COMPOUND | QUALITATIVE LABEL |
| --- | --- |
| CC(Cc1ccc(C(F)(F)F)cc1)NC(=O)c1ccc(S(=O)(=O)Nc2nccs2)cc1 (centres unmarked) [Example 130] | middle interval |
| O=C(NC1(c2cccc(Cl)c2)CC1)c1ccc(S(=O)(=O)Nc2nccs2)cc1 [Example 135] | high interval |
| CC(Cc1ccc(F)cc1)NC(=O)c1ccc(S(=O)(=O)Nc2nccs2)cc1 (centres unmarked) [Example 149] | middle interval |
| Cc1cccc(CN2CCN(C(=O)c3ccc(S(=O)(=O)Nc4nccs4)cc3)CC2=O)c1 [Example 276] | high interval |

Query block: Input O=C(NCc1c(F)cccc1Cl)c1ccc(S(=O)(=O)Nc2nccs2)cc1 [Example 86] ; output its category
Result block: high interval

Query block: Input CC(Cc1ccc(F)c(F)c1)NC(=O)c1ccc(S(=O)(=O)Nc2nccs2)cc1 (centres unmarked) [Example 151] ; output its category
Result block: middle interval

Query block: Input O=C(NCc1cc(C(F)(F)F)ccc1F)c1ccc(S(=O)(=O)Nc2nccs2)cc1 [Example 76] ; output its category
Result block: high interval

Query block: Input CC[C@@H](NC(=O)c1ccc(S(=O)(=O)Nc2nccs2)cc1)c1ccccc1 [Example 150] ; output its category
Result block: high interval

Query block: Input O=C(c1ccc(S(=O)(=O)Nc2nccs2)cc1)N1CCCC(Cc2cncnc2)C1 (centres unmarked) [Example 272] ; output its category
Result block: low interval

Query block: Input Cc1cc(CC(NC(=O)c2ccc(S(=O)(=O)Nc3nccs3)cc2)c2ccc(F)cc2)on1 (centres unmarked) [Example 156] ; output its category
Result block: high interval

----------
# MEASURED ON: hSCN3A sodium channels (Homo sapiens, UniProt Q9NY46)
# Construct: expressed in transfected cells
# ASSAY NOTES: hSCN3A electrophysiology, Ionworks Quattro automated platform (Table C)
# Assay type: cell-based
# MEASUREMENT SETUP: 10 μM compound, read-out: SCN3A % INHIB HTS IWQ 10 μM
Item-by-item account of inhibition at 10 µM
Write it as a number; the unit % goes unstated.

Examples with answers:
| COMPOUND | MEASURED ON | MEASURED |
| --- | --- | --- |
| CC(NC(=O)c1ccc(S(=O)(=O)Nc2nccs2)cc1)c1ccc(F)cc1 (stereo not drawn) | hSCN3A sodium channels (Homo sapiens, UniProt Q9NY46) | 46.8 |
| O=C(c1ccc(S(=O)(=O)Nc2nccs2)cc1)N1CCCCC1c1ccccn1 (stereo not drawn) | hSCN3A sodium channels (Homo sapiens, UniProt Q9NY46) | 9.77 |
| COc1ccc(CC2(NC(=O)c3ccc(S(=O)(=O)Nc4nccs4)cc3)CC2)cc1 | hSCN3A sodium channels (Homo sapiens, UniProt Q9NY46) | 13.7 |
| O=C(c1ccc(S(=O)(=O)Nc2nccs2)cc1)N1CCCO[C@H]1Cc1ccccc1 | hSCN3A sodium channels (Homo sapiens, UniProt Q9NY46) | 4.51 |
| Cc1noc(C(NC(=O)c2ccc(S(=O)(=O)Nc3nccs3)cc2)c2ccccc2)n1 (stereo not drawn) | hSCN3A sodium channels (Homo sapiens, UniProt Q9NY46) | 1.34 |
| O=C(c1ccc(S(=O)(=O)Nc2nccs2)cc1)N1CCCC1Cc1ccccc1F (stereo not drawn) | hSCN3A sodium channels (Homo sapiens, UniProt Q9NY46) | 15.9 |
| COc1ccc(C2(NC(=O)c3ccc(S(=O)(=O)Nc4nccs4)cc3)CC2)cc1 | hSCN3A sodium channels (Homo sapiens, UniProt Q9NY46) | 14.8 |
| O=C(c1ccc(S(=O)(=O)Nc2nccs2)cc1)N1CCCCC1CCn1cccn1 (stereo not drawn) | hSCN3A sodium channels (Homo sapiens, UniProt Q9NY46) | -8.21 |
| O=C(NCC1(c2ccccc2)CC1)c1ccc(S(=O)(=O)Nc2nccs2)cc1 | hSCN3A sodium channels (Homo sapiens, UniProt Q9NY46) | 32.9 |
| CC(C)(NC(=O)c1ccc(S(=O)(=O)Nc2nccs2)cc1)c1cc(F)cc(F)c1 | hSCN3A sodium channels (Homo sapiens, UniProt Q9NY46) | 25 |

Form: compound = COc1ccc(CC2CCCN2C(=O)c2ccc(S(=O)(=O)Nc3nccs3)cc2)cc1 (stereo not drawn) ; inhibition at 10 µM = 16.7

Form: compound = O=C(NCc1cc(F)ccc1C(F)(F)F)c1ccc(S(=O)(=O)Nc2nccs2)cc1 ; inhibition at 10 µM = 65.7

Form: compound = O=C(NCc1c(F)cccc1C(F)(F)F)c1ccc(S(=O)(=O)Nc2nccs2)cc1 ; inhibition at 10 µM = 22.2

Form: compound = O=C(c1ccc(S(=O)(=O)Nc2nccs2)cc1)N1CCOC(C2CC2)C1 (stereo not drawn) ; inhibition at 10 µM = -7.02

Form: compound = Cc1nccc(C2CCCN2C(=O)c2ccc(S(=O)(=O)Nc3nccs3)cc2)n1 (stereo not drawn) ; inhibition at 10 µM = -8.45

Form: compound = O=C(c1ccc(S(=O)(=O)Nc2nccs2)cc1)N1CCCC(COc2ccccc2)C1 (stereo not drawn) ; inhibition at 10 µM = 23.1

Form: compound = Cc1cccc(C2CCCN2C(=O)c2ccc(S(=O)(=O)Nc3nccs3)cc2)c1 (stereo not drawn) ; inhibition at 10 µM = 3.53

Form: compound = O=C(NC(c1c(F)cccc1F)C1CC1)c1ccc(S(=O)(=O)Nc2nccs2)cc1 (stereo not drawn) ; inhibition at 10 µM = 18.9

----------
# MEASURED ON: hSCN3A sodium channels (Homo sapiens)
# Construct: expressed in transfected cells
# ASSAY NOTES: hSCN3A electrophysiology, Ionworks Quattro automated platform (Table C)
# Format: cell-based
# MEASUREMENT SETUP: 3 μM compound, read-out: SCN3A % INHIB HTS IWQ 3 μM
Item-by-item account of inhibition at 3 µM
Report as: number unit

| COMPOUND | MEASURED |
| --- | --- |
| O=C(NCc1ccccc1)c1ccc(S(=O)(=O)Nc2nccs2)cc1 [Example 171] | 39.5% |
| Cc1ccc(F)cc1CNC(=O)c1ccc(S(=O)(=O)Nc2nccs2)cc1 [Example 58] | 37.4% |
| O=C(c1ccc(S(=O)(=O)Nc2nccs2)cc1)N1CCOCC(O)(Cc2ccccc2)C1 (centres unmarked) [Example 258] | 0.17% |
| CN(C(=O)c1ccc(S(=O)(=O)Nc2nccs2)cc1)C(Cc1ccccc1)c1ccccc1 (centres unmarked) [Example 251] | 19.9% |
| CCOc1ccccc1CNC(=O)c1ccc(S(=O)(=O)Nc2nccs2)cc1 [Example 89] | 14% |
| Cc1noc(C(NC(=O)c2ccc(S(=O)(=O)Nc3nccs3)cc2)c2ccccc2)n1 (centres unmarked) [Example 183] | 8.9% |

Form: compound = O=C(c1ccc(S(=O)(=O)Nc2nccs2)cc1)N1CCCC(Cc2ncccn2)C1 (centres unmarked) [Example 237] ; inhibition at 3 µM = 24.7%

Form: compound = N#Cc1cccc(OCC2CCCN(C(=O)c3ccc(S(=O)(=O)Nc4nccs4)cc3)C2)c1 (centres unmarked) [Example 278] ; inhibition at 3 µM = 25.4%
